All values here come from PubChem BioAssay AID1745844.

# Tested on: rodent lifetime carcinogenesis bioassay, tumor incidence TD50
# Test Summary: carcinogenic potency in animals, long-term in vivo studies, CPDB compilation (AID 1745844)
# Stated Conditions: mouse; strain B6C3F1; males; inhaled; site: all sites; lesion: malignant lymphoma, mixed type + malignant lymphoma; dosed 40 weeks; study length 104 weeks
Endpoint: TD50 (mg/kg/day)
One number for each entry, in mg/kg/day.

### Prompt Hello, I am looking for reported TD50 with rodent lifetime carcinogenesis bioassay, tumor incidence TD50 for `C=CC=C` . Could you help?
### Response 487

----------
# Test system: rodent lifetime carcinogenesis bioassay, tumor incidence TD50
# Test Summary: carcinogenic potency in animals, long-term in vivo studies, CPDB compilation (AID 1745844)
# Stated Conditions: mouse; strain Swiss; males; by gavage; site: lung; lesion: several types; types named in the paper; dosed 78 weeks; study length 78 weeks
Activity calls are given as the source filed them. The rule behind the calls is not given here.
Endpoint: TD50

### Prompt Given the molecule `O.O=S(=O)(O)O.[Cd]` , what is its reported TD50?
### Response 1.78 mg/kg/day (inactive)

----------
# System: rodent lifetime carcinogenesis bioassay, tumor incidence TD50
# Test Summary: carcinogenic potency in animals, long-term in vivo studies, CPDB compilation (AID 1745844)
# Stated Conditions: rat; strain Sprague-Dawley; males; in drinking water; site: any site (literature study); lesion: several types; types named in the paper; dosed 130 weeks; study length 130 weeks
Endpoint: TD50 (mg/kg/day)
Numbers only, in mg/kg/day.

### Prompt Please look up its TD50: `CCO`
### Response 2130

----------
# Tested on: rodent lifetime carcinogenesis bioassay, tumor incidence TD50
# Test Summary: carcinogenic potency in animals, long-term in vivo studies, CPDB compilation (AID 1745844)
# Stated Conditions: rat; strain Sprague-Dawley; females; inhaled; site: kidney; lesion: nephroblastoma; dosed 52 weeks; study length 139 weeks
Endpoint: TD50

### Prompt Checklist item: TD50 tested on rodent lifetime carcinogenesis bioassay, tumor incidence TD50, entry `C=CCl` , value?
### Response 230 mg/kg/day

----------
# System: rodent lifetime carcinogenesis bioassay, tumor incidence TD50
# Test Summary: carcinogenic potency in animals, long-term in vivo studies, CPDB compilation (AID 1745844)
# Stated Conditions: mouse; strain B6C3F1; males; in feed; site: liver; lesion: hepatocellular adenoma + hepatocellular carcinoma + neoplastic nodule; dosed 99 weeks; study length 99 weeks
Endpoint: TD50 (mg/kg/day)
Numbers only, in mg/kg/day.

### Prompt Could you share which TD50 value was measured for `Cc1cc(Cl)ccc1N` ?
### Response 3260

----------
# Test system: rodent lifetime carcinogenesis bioassay, tumor incidence TD50
# Test Summary: carcinogenic potency in animals, long-term in vivo studies, CPDB compilation (AID 1745844)
# Stated Conditions: rat; strain Harlan; males; in feed; site: brain; lesion: several types; types named in the paper; dosed 72 weeks; study length 94 weeks
Endpoint: TD50

### Prompt Return TD50 measured with rodent lifetime carcinogenesis bioassay, tumor incidence TD50 given this molecule: C#CC(OC(N)=O)(c1ccccc1)c1ccc(Cl)cc1 (stereo unspecified)
### Response 462 mg/kg/day

----------
# Test system: rodent lifetime carcinogenesis bioassay, tumor incidence TD50
# Test Summary: carcinogenic potency in animals, long-term in vivo studies, CPDB compilation (AID 1745844)
# Stated Conditions: rat; strain Fischer 344; females; in feed; site: lung; lesion: adenoma; dosed 53 weeks; study length 78 weeks
Endpoint: TD50

### Prompt Fill in: TD50 of `Cn1c(N)nc2c3cccnc3ccc21` is ___
### Response 16.2 mg/kg/day
